- EXPERIMENTAL DETAILS: total protein half-life in vivo (active degradation + dilution); higher = more stable protein
- EXPERIMENTAL SETUP: wild type E. coli NCM3722; growth: C-lim chemostat; doubling time 12 h
Exercise: for every item that follows, state its recorded total protein half-life in vivo.
Numbers only, in h.

| SEQ TEXT | ENDPOINT UNIT | total protein half-life in vivo |
| --- | --- | --- |
| MKSRAAVAFAPGKPLEIVEIDVAPPKKGEVLIKVTHTGVCHTDAFTLSGDDPEGVFPVVLGHEGAGVVVEVGEGVTSVKPGDHVIPLYTAECGECEFCRSGKTNLCVAVRETQGKGLMPDGTTRFSYNGQPLYHYMGCSTFSEYTVVAEVSLAKINPEANHEHVCLLGCGVTTGIGAVHNTAKVQPGDSVAVFGLGAIGLAVVQGARQAKAGRIIAIDTNPKKFDLARRFGATDCINPNDYDKPIKDVLLDINKWGIDHTFECIGNVNVMRAALESAHRGWGQSVIIGVAVAGQEISTRPFQLVTGRVWKGSAFGGVKGRSQLPGMVEDAMKGDIDLEPFVTHTMSLDEINDAFDLMHEGKSIRTVIRY | h | 10.1 |

// next entry
Challenge: Hello, please tell me recorded total protein half-life in vivo for this one: MLEMLMQWYRRRFSDPEAIALLVILVAGFGIIFFFSGLLAPLLVAIVLAYLLEWPTVRLQSIGCSRRWATSIVLVVFVGILLLMAFVVLPIAWQQGIYLIRDMPGMLNKLSDFAATLPRRYPALMDAGIIDAMAENMRSRMLTMGDSVVKISLASLVGLLTIAVYLVLVPLMVFFLLKDKEQMLNAVRRVLPRNRGLAGQVWKEMNQQITNYIRGKVLEMIVVGIATWLGFLLFGLNYSLLLAVLVGFSVLIPYIGAFVVTIPVVGVALFQFGAGTEFWSCFAVYLIIQALDGNLLVPVLFSEAVNLHPLVIILSVVIFGGLWGFWGVFFAIPLATLIKAVIHAWPDGQIAQE [P0AFI9]
Response given: 12.2

----------
- EXPERIMENTAL DETAILS: total protein half-life in vivo (active degradation + dilution); higher = more stable protein
- EXPERIMENTAL SETUP: E. coli NCM3722 delta-smpB; growth: N-lim chemostat; doubling time 6 h
READOUT LABEL: total protein half-life in vivo
Param answer (str): number followed by unit.

Guide cases for total protein half-life in vivo, answers given:
| SEQ TEXT | total protein half-life in vivo |
| --- | --- |
| MQLNITGNNVEITEALREFVTAKFAKLEQYFDRINQVYVVLKVEKVTHTSDATLHVNGGEIHASAEGQDMYAAIDGLIDKLARQLTKHKDKLKQH [P0AFX0] | 3.67 h |
| MTTQTVSGRRYFTKAWLMEQKSLIALLVLIAIVSTLSPNFFTINNLFNILQQTSVNAIMAVGMTLVILTSGIDLSVGSLLALTGAVAASIVGIEVNALVAVAAALALGAAIGAVTGVIVAKGRVQAFIATLVMMLLLRGVTMVYTNGSPVNTGFTENADLFGWFGIGRPLGVPTPVWIMGIVFLAAWYMLHHTRLGRYIYALGGNEAATRLSGINVNKIKIIVYSLCGLLASLAGIIEVARLSSAQPTAGTGYELDAIAAVVLGGTSLAGGKGRIVGTLIGALILGFLNNGLNLLGVSSYYQMIVKAVVILLAVLVDNKKQ [P0AGI1] | 6.07 h |
| MKVKVLSLLVPALLVAGAANAAEVYNKDGNKLDLYGKVDGLHYFSDNKDVDGDQTYMRLGFKGETQVTDQLTGYGQWEYQIQGNSAENENNSWTRVAFAGLKFQDVGSFDYGRNYGVVYDVTSWTDVLPEFGGDTYGSDNFMQQRGNGFATYRNTDFFGLVDGLNFAVQYQGKNGNPSGEGFTSGVTNNGRDALRQNGDGVGGSITYDYEGFGIGGAISSSKRTDAQNTAAYIGNGDRAETYTGGLKYDANNIYLAAQYTQTYNATRVGSLGWANKAQNFEAVAQYQFDFGLRPSLAYLQSKGKNLGRGYDDEDILKYVDVGATYYFNKNMSTYVDYKINLLDDNQFTRDAGINTDNIVALGLVYQF | 6.24 h |
| MPSIRLADLAQQLDAELHGDGDIVITGVASMQSAQTGHITFMVNPKYREHLGLCQASAVVMTQDDLPFAKSAALVVKNPYLTYARMAQILDTTPQPAQNIAPSAVIDATAKLGNNVSIGANAVIESGVELGDNVIIGAGCFVGKNSKIGAGSRLWANVTIYHEIQIGQNCLIQSGTVVGADGFGYANDRGNWVKIPQIGRVIIGDRVEIGACTTIDRGALDDTIIGNGVIIDNQCQIAHNVVIGDNTAVAGGVIMAGSLKIGRYCMIGGASVINGHMEICDKVTVTGMGMVMRPITEPGVYSSGIPLQPNKVWRKTAALVMNIDDMSKRLKSLERKVNQQD | 5.17 h |
| MKFELDTTDGRARRGRLVFDRGVVETPCFMPVGTYGTVKGMTPEEVEATGAQIILGNTFHLWLRPGQEIMKLHGDLHDFMQWKGPILTDSGGFQVFSLGDIRKITEQGVHFRNPINGDPIFLDPEKSMEIQYDLGSDIVMIFDECTPYPADWDYAKRSMEMSLRWAKRSRERFDSLGNKNALFGIIQGSVYEDLRDISVKGLVDIGFDGYAVGGLAVGEPKADMHRILEHVCPQIPADKPRYLMGVGKPEDLVEGVRRGIDMFDCVMPTRNARNGHLFVTDGVVKIRNAKYKSDTGPLDPECDCYTCRNYSRAYLHHLDRCNEILGARLNTIHNLRYYQRLMAGLRKAIEEGKLESFVTDFYQRQGREVPPLNVD [P0A847] | 4.12 h |
| MGKSIVVVSAVNFTTGGPFTILKKFLAATNNKENVSFIALVHSAKELKESYPWVKFIEFPEVKGSWLKRLHFEYVVCKKLSKELNATHWICLHDITANVVTKKRYVYCHNPAPFYKGILFREILMEPSFFLFKMLYGLIYKINIKKNTAVFVQQFWMKEKFIKKYSINNIIVSRPEIKLSDKSQLTDDDSQFKNNPSELTIFYPAVPRVFKNYELIISAARKLKEQSNIKFLLTISGTENAYAKYIISLAEGLDNVHFLGYLDKEKIDHCYNISDIVCFPSRLETWGLPLSEAKERGKWVLASDFPFTRETLGSYEKKAFFDSNNDDMLVKLIIDFKKGNLKKDISDANFIYRNENVLVGFDELVNFITEEH | 5.6 h |
| MLEILYQDEWLVAVNKPSGWLVHRSWLDRDEKVVVMQTVRDQIGQHVFTAHRLDRPTSGVLLMGLSSEAGRLLAQQFEQHQIQKRYHAIVRGWLMEEAVLDYPLVEELDKIADKFAREDKGPQPAVTHYRGLATVEMPVATGRYPTTRYGLVELEPKTGRKHQLRRHLAHLRHPIIGDSKHGDLRQNRSGAEHFGLQRLMLHASQLSLTHPFTGEPLTIHAGLDDTWMQALSQFGWRGLLPENERVEFSAPSGQDGEISS [P0AA41] | 4.34 h |
| MKITLSKRIGLLAILLPCALALSTTVHAETNKLVIESGDSAQSRQHAAMEKEQWNDTRNLRQKVNKRTEKEWDKADAAFDNRDKCEQSANINAYWEPNTLRCLDRRTGRVITP | 4.06 h |
| MEYQLTLNWPDFLERHWQKRPVVLKRGFNNFIDPISPDELAGLAMESEVDSRLVSHQDGKWQVSHGPFESYDHLGETNWSLLVQAVNHWHEPTAALMRPFRELPDWRIDDLMISFSVPGGGVGPHLDQYDVFIIQGTGRRRWRVGEKLQMKQHCPHPDLLQVDPFEAIIDEELEPGDILYIPPGFPHEGYALENAMNYSVGFRAPNTRELISGFADYVLQRELGGNYYSDPDVPPRAHPADVLPQEMDKLREMMLELINQPEHFKQWFGEFISQSRHELDIAPPEPPYQPDEIYDALKQGEVLVRLGGLRVLRIGDDVYANGEKIDSPHRPALDALASNIALTAENFGDALEDPSFLAMLAALVNSGYWFFEG | 4.63 h |

// next item, total protein half-life in vivo requested
Challenge: Read off the recorded total protein half-life in vivo for "MTLRKILALTCLLLPMMASAHQFETGQRVPPIGITDRGELVLDKDQFSYKTWNSAQLVGKVRVLQHIAGRTSAKEKNATLIEAIKSAKLPHDRYQTTTIVNTDDAIPGSGMFVRSSLESNKKLYPWSQFIVDSNGVALGAWQLDEESSAVVVLDKDGRVQWAKDGALTPEEVQQVMDLLQKLLK"
Response given: 5.29 h

The values you see were collected from the supplement of paper PMC11246515.
